For each entry below, report its GI50 value.
system: HCT-15

compound: COC(=O)C1Cc2c(OC)ccc(OC)c2CC(C(=O)OC)C1=O (stereo unspecified)
system_under_test: HCT-15
GI50: > 100 µM
--
compound: CSc1ccc(C(=O)C(=O)c2ccc(SC)s2)s1
system_under_test: HCT-15
GI50: > 10 µM
--
compound: FC(F)(F)c1cccnc1Sc1nc2ccccc2s1
system_under_test: HCT-15
GI50: > 100 µM
--
compound: Cc1ccc2nc3c(C)cc(=O)cc-3sc2c1
system_under_test: HCT-15
GI50: 16 µM
--
compound: CN1CCN(CCCCNc2cc3c4ccccc4c(NCCCCN4CCN(C)CC4)cc3c3ccccc23)CC1
system_under_test: HCT-15
GI50: 1.34 µM

Give me GI50 for each of these compounds, listed below.
1. Cc1c2c(OCCCCN3CCN(c4ncccn4)CC3)nn(C)c(=O)c2c(C)n1-c1ccccc1
2. CC1=CC2=C(C(N)=O)C(=O)OC2(C)C(c2ccccc2)C1 (stereo unspecified)
3. COC(=O)C1=C(CO)C2C=CC1C2 (stereo unspecified)
4. COc1c(C)c(C/C=C(\C)CCCCO)c(OC)c2ccccc12
5. C[C@]12CCCC(=O)C1(O)C[C@H](C(=O)O)CC2 (stereo partly specified)

Solution:
17.8 µM
> 100 µM
> 100 µM
31.6 µM
> 100 µM

Give me GI50 for each of these compounds, listed below.
1. COCOc1c(C(OCOC)c2cnc(Sc3ccccc3)n2C)ccc(OC)c1OC (stereo unspecified)
2. CCCCOC(=O)C1CC[C@H]2[C@@H]3CCc4cc(OC(=O)c5cccc6c(=O)c7ccccc7[nH]c56)ccc4[C@H]3CC[C@]12C (stereo partly specified)
3. CN(C)C(=C1c2cc([N+](=O)[O-])ccc2-c2ccc([N+](=O)[O-])cc21)N(C)C

Solution:
1: > 100 µM; 2: 6.98 µM; 3: > 100 µM

Give me GI50 for each of these compounds, listed below.
1. O=C1C2=Cc3ccccc3CCN2c2ccccc21
2. CC1=CC[C@H](C)C(C)(C)C1/C=C/C(C)=C/CC[C@@]1(CO)[C@H](CCCO)/C(=C(/C)C=O)CC[C@]1(C)O (stereo partly specified)

Solution:
1. 25.6 µM
2. 7.64 µM

Give me GI50 for each of these compounds, listed below.
1. COc1ccccc1NC(=O)C1=C(C)NC(C)=C(C(=O)Nc2ccccc2OC)C1/C=C/c1ccccc1
2. O=c1c2ccccc2nc(-c2ccccc2)n1NC(=S)Nc1ccc(Cl)cc1[N+](=O)[O-]
3. CCC[C@@H]1C(=O)N=C(N)N1C(=O)OCc1ccccc1
4. CCOC(=O)C1=COC(C)(CCc2ccccc2)CC1=O (stereo unspecified)

Solution:
["> 100 µM", "35 µM", "> 100 µM", "> 100 µM"]

Give me GI50 for each of these compounds, listed below.
1. O=[N+]([O-])c1ccc2[nH]c(=S)[nH]c(=S)c2c1
2. COc1ccc(-c2c3ccccc3c(-c3ccc(OCCBr)cc3)c3ccccc23)cc1

Solution:
1: > 100 µM; 2: > 100 µM
